assaySystem: Mu-type opioid receptor (Homo sapiens)
assayExplanation: Agonist activity at mu opioid receptor (unknown origin) expressed in human HEK293 cells assessed as […] in cAMP accumulation using [3H]-cAMP as substrate measured after 30mins by liquid scintillation counting method relative to control
Assay type: functional, cell-based
Simple rule here: Emax less than 70% is MET, otherwise NOT MET.

| molecule | answerLabel |
| --- | --- |
| C=C(C(N)=O)[C@@H](NC(=O)[C@H](Cc1c[nH]c2ccccc12)NC(=O)[C@@H](CCCNC(N)=O)NC(=O)[C@@H](N)Cc1ccc(O)cc1)c1ccco1 | NOT MET |
| C=C(C(N)=O)[C@@H](NC(=O)[C@H](Cc1c[nH]c2ccccc12)NC(=O)[C@@H](CCCCN)NC(=O)[C@@H](N)Cc1ccc(O)cc1)c1ccco1 | MET |
| C=C(C(N)=O)[C@@H](NC(=O)[C@H](Cc1c[nH]c2ccccc12)NC(=O)[C@@H](CCCN)NC(=O)[C@@H](N)Cc1ccc(O)cc1)c1ccco1 | MET |
| NC(=O)[C@H](Cc1ccccc1)NC(=O)[C@H](Cc1ccccc1)NC(=O)[C@@H]1CCCN1C(=O)[C@@H](N)Cc1ccc(O)cc1 [ENDOMORPHIN 2] | MET |
| C=C(C(N)=O)[C@@H](NC(=O)[C@H](Cc1c[nH]c2ccccc12)NC(=O)[C@@H](CCCNC(=N)N)NC(=O)[C@@H](N)Cc1ccc(O)cc1)c1ccco1 | MET |
| C=C(C(N)=O)[C@@H](NC(=O)[C@H](Cc1c[nH]c2ccccc12)NC(=O)[C@@H](CCC)NC(=O)[C@@H](N)Cc1ccc(O)cc1)c1ccco1 | MET |

----------
assaySystem: Mu-type opioid receptor (Homo sapiens)
assayExplanation: Agonist activity at mu opioid receptor (unknown origin) expressed in human HEK293 cells assessed as […] in cAMP accumulation using [3H]-cAMP as substrate measured after 30mins by liquid scintillation counting method

| compoundString | EC50 / nM |
| --- | --- |
| C=C(C(N)=O)[C@@H](NC(=O)[C@H](Cc1c[nH]c2ccccc12)NC(=O)[C@@H](CCCCNC(=N)N)NC(=O)[C@@H](N)Cc1ccc(O)cc1)c1ccco1 | 341 |
| C=C(C(N)=O)[C@@H](NC(=O)[C@H](Cc1ccccc1)NC(=O)[C@@H](CCCNC(=N)N)NC(=O)[C@@H](N)Cc1ccc(O)cc1)c1ccco1 | 370 |
| C=C(C(N)=O)[C@@H](NC(=O)[C@H](Cc1c[nH]c2ccccc12)NC(=O)[C@@H](CCCNC(=N)N)NC(=O)[C@@H](N)Cc1ccc(O)cc1)c1ccco1 | 221 |

----------
assaySystem: Delta-type opioid receptor (Rattus norvegicus, UniProt P33533)
Sequence (P33533 whole entry): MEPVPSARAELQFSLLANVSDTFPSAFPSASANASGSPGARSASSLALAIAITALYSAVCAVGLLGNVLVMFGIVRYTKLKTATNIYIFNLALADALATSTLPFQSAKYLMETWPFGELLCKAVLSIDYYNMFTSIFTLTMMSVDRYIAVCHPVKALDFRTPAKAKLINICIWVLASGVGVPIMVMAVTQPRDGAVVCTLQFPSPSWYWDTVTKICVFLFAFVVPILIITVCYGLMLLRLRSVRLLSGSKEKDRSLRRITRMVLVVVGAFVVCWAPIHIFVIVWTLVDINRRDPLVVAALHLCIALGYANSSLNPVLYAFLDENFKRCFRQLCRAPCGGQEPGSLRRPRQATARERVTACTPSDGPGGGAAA
assayExplanation: Displacement of [3H]-DPDPE from Wistar rat delta opioid receptor incubated for 3 hrs by liquid scintillation counting method
pKi: −log10 of the molar value.
A collection of compounds and their measured pKi

| compoundString | pKi |
| --- | --- |
| C=C(C(N)=O)[C@@H](NC(=O)[C@H](Cc1c[nH]c2ccccc12)NC(=O)[C@@H](CN)NC(=O)[C@@H](N)Cc1ccc(O)cc1)c1ccco1 | < 5.00 |
| C=C(C(N)=O)[C@@H](NC(=O)[C@H](Cc1ccccc1)NC(=O)[C@@H](CCCNC(=N)N)NC(=O)[C@@H](N)Cc1ccc(O)cc1)c1ccco1 | 6.04 |
| C=C(C(N)=O)[C@@H](NC(=O)[C@H](Cc1c[nH]c2ccccc12)NC(=O)[C@@H](CCN)NC(=O)[C@@H](N)Cc1ccc(O)cc1)c1ccco1 | < 5.00 |
| C=C(C(N)=O)[C@@H](NC(=O)[C@H](Cc1c[nH]c2ccccc12)NC(=O)[C@@H](CCC)NC(=O)[C@@H](N)Cc1ccc(O)cc1)c1ccco1 | 5.58 |
| C=C(C(N)=O)[C@@H](NC(=O)[C@H](Cc1c[nH]c2ccccc12)NC(=O)[C@@H](CNC(C)=O)NC(=O)[C@@H](N)Cc1ccc(O)cc1)c1ccco1 | < 5.00 |
| C=C(C(N)=O)[C@@H](NC(=O)[C@H](Cc1ccccc1)NC(=O)[C@@H](CN)NC(=O)[C@@H](N)Cc1ccc(O)cc1)c1ccco1 | < 5.00 |

----------
A collection of compounds and their measured pEC50
assaySystem: Mu-type opioid receptor (Homo sapiens, UniProt P35372)
Sequence (P35372 whole entry): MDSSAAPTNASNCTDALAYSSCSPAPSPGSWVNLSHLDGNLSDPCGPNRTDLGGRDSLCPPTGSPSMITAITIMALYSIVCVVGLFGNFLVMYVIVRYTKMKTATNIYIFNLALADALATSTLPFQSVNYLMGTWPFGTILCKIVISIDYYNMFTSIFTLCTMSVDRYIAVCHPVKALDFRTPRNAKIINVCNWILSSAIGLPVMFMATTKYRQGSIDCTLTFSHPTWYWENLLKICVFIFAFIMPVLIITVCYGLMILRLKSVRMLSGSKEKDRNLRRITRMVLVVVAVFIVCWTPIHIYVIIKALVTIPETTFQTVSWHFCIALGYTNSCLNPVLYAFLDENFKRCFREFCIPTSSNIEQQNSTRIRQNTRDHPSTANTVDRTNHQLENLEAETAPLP
assayExplanation: Agonist activity at mu opioid receptor (unknown origin) expressed in human HEK293 cells assessed as […] in cAMP accumulation using [3H]-cAMP as substrate measured after 30mins by liquid scintillation counting method
Format: functional, cell-based
pEC50: −log10 of the molar value.
measure: pEC50

| compoundString | measure | measuredValue |
| --- | --- | --- |
| C=C(C(N)=O)[C@@H](NC(=O)[C@H](Cc1c[nH]c2ccccc12)NC(=O)[C@@H](CCCN)NC(=O)[C@@H](N)Cc1ccc(O)cc1)c1ccco1 | pEC50 | 7.05 |
| C=C(C(N)=O)[C@@H](NC(=O)[C@H](Cc1c[nH]c2ccccc12)NC(=O)[C@@H](CCN)NC(=O)[C@@H](N)Cc1ccc(O)cc1)c1ccco1 | pEC50 | 6.79 |
| C=C(C(N)=O)[C@@H](NC(=O)[C@H](Cc1ccccc1)NC(=O)[C@@H](CCCNC(N)=O)NC(=O)[C@@H](N)Cc1ccc(O)cc1)c1ccco1 | pEC50 | 6.89 |
| C=C(C(N)=O)[C@@H](NC(=O)[C@H](Cc1c[nH]c2ccccc12)NC(=O)[C@@H](CCCCNC(C)=O)NC(=O)[C@@H](N)Cc1ccc(O)cc1)c1ccco1 | pEC50 | 6.03 |
| C=C(C(N)=O)[C@@H](NC(=O)[C@H](Cc1c[nH]c2ccccc12)NC(=O)[C@@H](CN)NC(=O)[C@@H](N)Cc1ccc(O)cc1)c1ccco1 | pEC50 | 6.72 |

----------
assaySystem: Delta-type opioid receptor (Rattus norvegicus, UniProt P33533)
assayExplanation: Displacement of [3H]-DPDPE from Wistar rat delta opioid receptor incubated for 3 hrs by liquid scintillation counting method
pKi: −log10 of the molar value.
measure: pKi

| compoundString | assaySystem | measuredValue |
| --- | --- | --- |
| C=C(C(N)=O)[C@@H](NC(=O)[C@H](Cc1c[nH]c2ccccc12)NC(=O)[C@@H](CCCNC(=N)N)NC(=O)[C@@H](N)Cc1ccc(O)cc1)c1ccco1 | Delta-type opioid receptor (Rattus norvegicus, UniProt P33533) | 6.02 |
| C=C(C(N)=O)[C@@H](NC(=O)[C@H](Cc1ccccc1)NC(=O)[C@@H](CCCNC(N)=O)NC(=O)[C@@H](N)Cc1ccc(O)cc1)c1ccco1 | Delta-type opioid receptor (Rattus norvegicus, UniProt P33533) | < 5.00 |
| C=C(C(N)=O)[C@@H](NC(=O)[C@H](Cc1c[nH]c2ccccc12)NC(=O)[C@@H](CCCN)NC(=O)[C@@H](N)Cc1ccc(O)cc1)c1ccco1 | Delta-type opioid receptor (Rattus norvegicus, UniProt P33533) | 6.49 |
| C=C(C(N)=O)[C@@H](NC(=O)[C@H](Cc1c[nH]c2ccccc12)NC(=O)[C@@H](CCCCNC(C)=O)NC(=O)[C@@H](N)Cc1ccc(O)cc1)c1ccco1 | Delta-type opioid receptor (Rattus norvegicus, UniProt P33533) | 5.45 |
| C=C(C(N)=O)[C@@H](NC(=O)[C@H](Cc1c[nH]c2ccccc12)NC(=O)[C@@H](CCCCNC(=N)N)NC(=O)[C@@H](N)Cc1ccc(O)cc1)c1ccco1 | Delta-type opioid receptor (Rattus norvegicus, UniProt P33533) | < 5.00 |
| C=C(C(N)=O)[C@@H](NC(=O)[C@H](Cc1c[nH]c2ccccc12)NC(=O)[C@@H](CCCCN)NC(=O)[C@@H](N)Cc1ccc(O)cc1)c1ccco1 | Delta-type opioid receptor (Rattus norvegicus, UniProt P33533) | < 5.00 |
| C=C(C(N)=O)[C@@H](NC(=O)[C@H](Cc1c[nH]c2ccccc12)NC(=O)[C@@H](CCCNC(N)=O)NC(=O)[C@@H](N)Cc1ccc(O)cc1)c1ccco1 | Delta-type opioid receptor (Rattus norvegicus, UniProt P33533) | < 5.00 |
| C=C(C(N)=O)[C@@H](NC(=O)[C@H](Cc1ccccc1)NC(=O)[C@@H](CNC(C)=O)NC(=O)[C@@H](N)Cc1ccc(O)cc1)c1ccco1 | Delta-type opioid receptor (Rattus norvegicus, UniProt P33533) | < 5.00 |
